# targetOrTestSystem: PI3K-α (PIK3CA) in MDA-MB-453 cells (Homo sapiens, UniProt P42336)
# Sequence (P27986 2-724): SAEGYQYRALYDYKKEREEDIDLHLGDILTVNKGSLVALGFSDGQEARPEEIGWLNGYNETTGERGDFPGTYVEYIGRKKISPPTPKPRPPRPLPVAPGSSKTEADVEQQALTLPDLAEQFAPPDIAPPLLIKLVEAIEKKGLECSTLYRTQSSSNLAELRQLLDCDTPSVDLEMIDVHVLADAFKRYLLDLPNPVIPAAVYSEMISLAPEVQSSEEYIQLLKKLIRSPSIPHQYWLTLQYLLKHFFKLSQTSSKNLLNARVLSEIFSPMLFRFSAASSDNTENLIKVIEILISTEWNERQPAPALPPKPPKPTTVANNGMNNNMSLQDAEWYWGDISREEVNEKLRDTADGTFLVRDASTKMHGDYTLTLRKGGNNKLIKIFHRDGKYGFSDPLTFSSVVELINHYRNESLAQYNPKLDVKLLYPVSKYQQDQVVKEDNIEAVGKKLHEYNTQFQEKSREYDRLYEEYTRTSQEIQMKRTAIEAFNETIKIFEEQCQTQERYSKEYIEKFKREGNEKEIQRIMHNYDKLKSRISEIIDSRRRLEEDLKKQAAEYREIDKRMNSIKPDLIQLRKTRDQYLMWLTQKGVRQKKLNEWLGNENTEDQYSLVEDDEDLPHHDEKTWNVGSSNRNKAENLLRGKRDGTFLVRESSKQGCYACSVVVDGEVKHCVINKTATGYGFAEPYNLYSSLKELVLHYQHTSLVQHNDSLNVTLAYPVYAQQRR
# Sequence (P42336 whole entry): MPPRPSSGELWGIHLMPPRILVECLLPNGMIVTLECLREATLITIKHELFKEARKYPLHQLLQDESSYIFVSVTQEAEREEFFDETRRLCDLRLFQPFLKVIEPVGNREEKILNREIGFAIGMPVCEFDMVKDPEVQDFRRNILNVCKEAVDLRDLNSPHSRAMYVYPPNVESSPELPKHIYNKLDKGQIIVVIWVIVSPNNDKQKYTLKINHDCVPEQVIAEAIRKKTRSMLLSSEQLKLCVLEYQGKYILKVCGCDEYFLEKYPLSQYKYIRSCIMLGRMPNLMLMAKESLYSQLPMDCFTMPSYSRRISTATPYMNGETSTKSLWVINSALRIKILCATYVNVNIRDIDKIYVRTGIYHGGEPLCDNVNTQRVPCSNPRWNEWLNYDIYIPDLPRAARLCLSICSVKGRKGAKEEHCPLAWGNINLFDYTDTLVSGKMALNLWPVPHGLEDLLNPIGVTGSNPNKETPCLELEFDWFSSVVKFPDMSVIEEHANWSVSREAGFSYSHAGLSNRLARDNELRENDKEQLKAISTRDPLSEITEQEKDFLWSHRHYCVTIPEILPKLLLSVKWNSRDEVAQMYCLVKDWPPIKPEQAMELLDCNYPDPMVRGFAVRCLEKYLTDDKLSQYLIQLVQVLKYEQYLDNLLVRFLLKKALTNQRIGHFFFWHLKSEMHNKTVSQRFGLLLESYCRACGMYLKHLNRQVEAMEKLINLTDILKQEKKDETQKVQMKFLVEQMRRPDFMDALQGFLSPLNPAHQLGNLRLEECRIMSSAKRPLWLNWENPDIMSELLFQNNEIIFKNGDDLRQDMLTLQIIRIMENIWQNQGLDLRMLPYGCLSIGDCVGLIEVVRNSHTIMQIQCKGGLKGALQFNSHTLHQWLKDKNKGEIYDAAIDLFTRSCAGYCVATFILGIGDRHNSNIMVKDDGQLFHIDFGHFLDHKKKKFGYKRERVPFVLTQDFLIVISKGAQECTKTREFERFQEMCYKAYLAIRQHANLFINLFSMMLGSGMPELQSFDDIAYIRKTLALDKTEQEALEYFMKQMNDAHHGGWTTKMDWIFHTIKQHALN
# experimentSummary: PI3K-alpha kinase (PIK3CA) in vitro cell based assay, MDA-MB-453 cells, SureFire Ultra AlphaLisa
# conditionLabel: read-out: PI3K-α (PIK3CA) in vitro cell based assay IC50
# Description: PI3K-Alpha Kinase (PIK3CA) Activity In Vitro Cell Based Assay and Determining IC50 Values for Inhibitors The MDA-MB-453 (ATCC-HTB-131) cell line was obtained from the American Type Culture Collection (Manassas, VA). Cells were maintained in Dulbecco's Modified Eagle Media (DMEM, Gibco 11965-092) supplemented with 10% Fetal Bovine Serum, heat inactivated (FBS HI, Gibco 10082-147), 1× non-essential amino acids (NEAA, Gibco 11140-050), and 1 mM sodium pyruvate (Gibco 11360-070). […]
pIC50: −log10 of the molar value.
So I've got a bunch of molecules here, and I need their pIC50 values.

Which pIC50 reading was recorded for the molecule Cc1cc(C(C)Nc2ccccc2C(=O)O)c2oc(-c3cc4cn(C)nc4cn3)cc(=O)c2c1 (single isomer, unassigned) ?
7.00 to 7.30

Also need Cc1cn2cc(-c3cc(=O)c4cc(F)cc(C(C)Nc5ccccc5C(=O)O)c4o3)ccc2n1 (single isomer, unassigned) , thanks.
> 7.30

Also need Cc1cc(C(C)Nc2ccccc2C(=O)O)c2oc(-c3ccc4cc[nH]c4c3)c(C)c(=O)c2c1 (single isomer, unassigned) , thanks.
> 7.30
